Measured values drawn from patent US11851431B2 for this set.

target: JAK2 (Homo sapiens, UniProt O60674)
Sequence (O60674 whole entry): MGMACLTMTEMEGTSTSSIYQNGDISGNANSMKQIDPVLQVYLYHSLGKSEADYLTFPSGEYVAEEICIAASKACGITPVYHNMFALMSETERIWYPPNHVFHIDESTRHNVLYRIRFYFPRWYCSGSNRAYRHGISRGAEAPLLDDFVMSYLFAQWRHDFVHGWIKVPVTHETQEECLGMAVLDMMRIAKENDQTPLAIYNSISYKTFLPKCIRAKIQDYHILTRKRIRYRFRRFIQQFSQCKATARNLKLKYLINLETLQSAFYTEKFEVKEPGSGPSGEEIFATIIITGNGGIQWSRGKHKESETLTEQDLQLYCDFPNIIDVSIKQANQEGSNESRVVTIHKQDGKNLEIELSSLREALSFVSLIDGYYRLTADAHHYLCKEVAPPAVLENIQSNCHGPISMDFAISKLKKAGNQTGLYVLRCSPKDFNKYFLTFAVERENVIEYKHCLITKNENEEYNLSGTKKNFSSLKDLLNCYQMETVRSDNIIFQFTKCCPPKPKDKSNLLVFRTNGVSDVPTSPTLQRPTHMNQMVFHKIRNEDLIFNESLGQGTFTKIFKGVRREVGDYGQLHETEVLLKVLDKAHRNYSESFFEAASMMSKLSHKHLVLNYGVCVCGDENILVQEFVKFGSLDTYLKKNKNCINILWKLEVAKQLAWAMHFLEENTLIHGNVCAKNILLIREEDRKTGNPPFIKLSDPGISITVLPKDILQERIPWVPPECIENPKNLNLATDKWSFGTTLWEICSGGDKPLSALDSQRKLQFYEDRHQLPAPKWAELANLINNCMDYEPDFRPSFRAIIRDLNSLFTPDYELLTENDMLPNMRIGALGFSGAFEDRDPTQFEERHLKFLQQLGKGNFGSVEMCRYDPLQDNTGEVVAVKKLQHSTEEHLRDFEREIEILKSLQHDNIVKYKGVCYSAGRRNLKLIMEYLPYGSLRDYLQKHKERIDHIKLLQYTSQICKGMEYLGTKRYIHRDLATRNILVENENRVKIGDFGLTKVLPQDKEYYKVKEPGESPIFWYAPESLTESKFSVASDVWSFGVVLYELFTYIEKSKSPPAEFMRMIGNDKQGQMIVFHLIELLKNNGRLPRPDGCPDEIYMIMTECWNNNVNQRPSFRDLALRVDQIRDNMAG
pIC50: −log10 of the molar value.
measuredAttribute: pIC50

CC(C)CS(=O)(=O)NC12CC(n3cnc4cnc5[nH]ccc5c43)(C1)C2	6.84

(P) N#CCCNC(=O)NC12CC(n3cnc4cnc5[nH]ccc5c43)(C1)C2
(Q) COC1CN(C(=O)NC23CC(n4cnc5cnc6[nH]ccc6c54)(C2)C3)C1
(R) O=S(=O)(CC1CC(F)(F)C1)NC12CC(n3cnc4cnc5[nH]ccc5c43)(C1)C2
List these items ordered by pIC50, big to small. Please, when replying, give the labels in the order that was requested.
R, P, Q

###

test: Rat pharmacokinetic study; type: in vivo, Sprague-Dawley rats; settings: Sprague-Dawley, plasma, 1 mg/kg; Rat iv @1 mpk; 0.2 mg/mL in 5% DMSO + 15% Solutol HS 15 + 80% Saline
measuredAttribute: clearance (mL/min/kg)
Give the number; mL/min/kg is assumed, so skip it.

What does the record list as clearance for CCCS(=O)(=O)NC12CC(n3cnc4cnc5[nH]ccc5c43)(C1)C2 ?
36.2

###

Test: Human liver microsome stability study
Format: in vitro ADME
Conditions: liver microsomes, pH 7.4, 0.5 mg/mL microsomal protein, 1 μM test article, read-out: HLM T½
Procedure: Commercially available human liver microsome (vendor: Corning) were used for study the Phase I stability of test articles. Microsomes were pre-incubated with test compound or control compounds for 10 min at 37° C. in 100 mM potassium phosphate buffer, pH 7.4, 3.3 mM MgCl2. […] 80 μL of supernatant are taken into 96-well assay plates pre-added with 160 μL ultrapure water, and then analyzed by LC/MS/MS (Shimadzu LC30AD & API4000/API5000)). […]
measuredAttribute: half-life at 1 μM (h)

N#CCCC(=O)NC12CC(n3cnc4cnc5[nH]ccc5c43)(C1)C2	29.8

(A) O=S(=O)(CCC(F)(F)F)NC12CC(n3cnc4cnc5[nH]ccc5c43)(C1)C2
(B) O=C(CC1CC1)NC12CC(n3cnc4cnc5[nH]ccc5c43)(C1)C2
(C) CCCS(=O)(=O)NC12CC(n3cnc4cnc5[nH]ccc5c43)(C1)C2
Sort the compounds on half-life at 1 μM; start with the lowest figure. Please, when replying, give the labels in the order that was requested.
C, A, B

(1) O=S(=O)(NC12CC(n3cnc4cnc5[nH]ccc5c43)(C1)C2)N1CC(F)C1
(2) N#CC1CN(S(=O)(=O)NC23CC(n4cnc5cnc6[nH]ccc6c54)(C2)C3)C1
Hi team, can someone confirm which has the larger half-life at 1 μM: 1 or 2 ? Thanks. Mark your answer with the label of the selected entry.
1

###

Each entry below carries its measured IC50, system: JAK1 (Homo sapiens, UniProt P23458).
Sequence (P23458 whole entry): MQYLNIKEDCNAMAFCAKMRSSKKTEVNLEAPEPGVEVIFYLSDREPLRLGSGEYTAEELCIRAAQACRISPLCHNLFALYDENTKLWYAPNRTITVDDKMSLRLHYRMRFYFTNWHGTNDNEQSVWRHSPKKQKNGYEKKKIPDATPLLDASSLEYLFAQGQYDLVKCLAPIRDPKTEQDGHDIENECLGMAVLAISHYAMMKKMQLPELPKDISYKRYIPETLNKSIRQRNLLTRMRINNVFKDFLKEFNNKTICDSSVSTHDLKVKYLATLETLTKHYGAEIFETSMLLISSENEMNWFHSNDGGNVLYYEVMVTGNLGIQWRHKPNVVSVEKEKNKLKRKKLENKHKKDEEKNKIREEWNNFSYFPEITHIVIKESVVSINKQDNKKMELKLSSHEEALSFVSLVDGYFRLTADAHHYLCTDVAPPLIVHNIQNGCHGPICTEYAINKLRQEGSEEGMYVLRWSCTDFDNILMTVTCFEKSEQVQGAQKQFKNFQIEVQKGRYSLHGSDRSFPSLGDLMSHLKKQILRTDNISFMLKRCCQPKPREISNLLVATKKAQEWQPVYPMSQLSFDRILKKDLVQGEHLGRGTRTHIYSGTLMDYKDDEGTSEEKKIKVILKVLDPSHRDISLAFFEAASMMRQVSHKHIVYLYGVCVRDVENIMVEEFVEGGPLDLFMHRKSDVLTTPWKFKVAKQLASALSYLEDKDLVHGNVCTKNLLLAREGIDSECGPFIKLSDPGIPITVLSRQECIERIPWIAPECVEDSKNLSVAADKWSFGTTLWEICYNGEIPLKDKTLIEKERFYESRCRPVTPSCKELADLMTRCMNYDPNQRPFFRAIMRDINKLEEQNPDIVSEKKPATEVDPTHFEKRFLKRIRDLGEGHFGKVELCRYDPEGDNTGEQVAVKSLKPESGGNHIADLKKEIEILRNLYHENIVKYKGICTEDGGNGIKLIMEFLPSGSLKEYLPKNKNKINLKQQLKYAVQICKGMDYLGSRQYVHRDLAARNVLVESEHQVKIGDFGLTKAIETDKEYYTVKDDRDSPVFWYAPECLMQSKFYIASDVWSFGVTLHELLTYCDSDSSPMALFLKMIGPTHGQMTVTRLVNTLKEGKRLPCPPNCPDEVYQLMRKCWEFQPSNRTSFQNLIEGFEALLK
measuredAttribute: IC50 (nM)

CC(C)CNC(=O)NC12CC(n3cnc4cnc5[nH]ccc5c43)(C1)C2	49.5
CC(C)CC(=O)NC12CC(n3cnc4cnc5[nH]ccc5c43)(C1)C2	47.4

(a) N[C@H]1C[C@@H](n2cnc3cnc4[nH]ccc4c32)C1 [Example 2e, 2,2,2-trifluoroacetate]
(b) O=S(=O)(NC12CC(n3cnc4cnc5[nH]ccc5c43)(C1)C2)c1ccc(Cl)cc1
Hi team, can someone confirm which has the larger IC50: a or b ? Thanks. Mark your answer with the label of the selected entry.
a
(a: 2570 nM, b: 6.7 nM)

###

experiment: Rat pharmacokinetic study; format: in vivo, Sprague-Dawley rats; conditions: Sprague-Dawley, plasma, 1 mg/kg; Rat iv @1 mpk; 0.2 mg/mL in 4% DMSO + 15% Solutol HS 15 + 81% Saline; read-out: t½ (converted)
measuredAttribute: half-life (min)
Give the number; min is assumed, so skip it.

What does the record list as half-life for N#CC1CN(S(=O)(=O)NC23CC(n4cnc5cnc6[nH]ccc6c54)(C2)C3)C1 ?
15.6

###

Each entry below carries its measured IC50, system: TYK2 (Homo sapiens, UniProt P29597).
Sequence (P29597 whole entry): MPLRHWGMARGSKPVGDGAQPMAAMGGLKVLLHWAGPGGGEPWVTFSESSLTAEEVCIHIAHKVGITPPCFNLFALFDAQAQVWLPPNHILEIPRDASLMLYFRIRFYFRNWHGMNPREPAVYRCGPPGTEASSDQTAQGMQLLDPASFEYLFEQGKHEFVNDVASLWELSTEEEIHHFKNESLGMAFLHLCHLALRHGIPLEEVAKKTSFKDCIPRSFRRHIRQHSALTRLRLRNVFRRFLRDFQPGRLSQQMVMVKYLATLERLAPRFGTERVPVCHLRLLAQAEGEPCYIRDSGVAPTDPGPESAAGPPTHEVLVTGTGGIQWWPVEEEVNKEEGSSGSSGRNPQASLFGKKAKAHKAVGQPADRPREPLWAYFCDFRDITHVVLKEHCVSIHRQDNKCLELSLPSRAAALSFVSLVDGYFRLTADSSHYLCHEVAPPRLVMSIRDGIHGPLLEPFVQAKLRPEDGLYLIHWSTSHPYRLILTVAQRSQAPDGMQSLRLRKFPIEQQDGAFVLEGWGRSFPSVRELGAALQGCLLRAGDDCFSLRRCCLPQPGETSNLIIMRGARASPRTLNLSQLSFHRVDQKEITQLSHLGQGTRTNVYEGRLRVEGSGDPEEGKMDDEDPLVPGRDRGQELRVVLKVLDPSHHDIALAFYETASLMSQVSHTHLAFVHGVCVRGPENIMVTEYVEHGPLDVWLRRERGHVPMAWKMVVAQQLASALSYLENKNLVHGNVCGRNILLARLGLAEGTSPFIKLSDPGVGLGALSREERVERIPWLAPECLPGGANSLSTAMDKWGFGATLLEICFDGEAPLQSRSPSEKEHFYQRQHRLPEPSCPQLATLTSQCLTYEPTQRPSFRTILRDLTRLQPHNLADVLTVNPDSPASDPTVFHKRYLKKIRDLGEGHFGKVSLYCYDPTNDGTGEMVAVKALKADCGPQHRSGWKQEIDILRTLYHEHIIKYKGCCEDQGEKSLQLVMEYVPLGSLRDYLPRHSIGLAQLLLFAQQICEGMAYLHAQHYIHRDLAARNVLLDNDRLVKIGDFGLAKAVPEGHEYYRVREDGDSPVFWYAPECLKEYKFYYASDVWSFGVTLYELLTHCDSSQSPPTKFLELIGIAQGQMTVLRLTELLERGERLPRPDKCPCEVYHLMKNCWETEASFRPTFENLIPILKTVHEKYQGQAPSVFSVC
measuredAttribute: IC50 (nM)

O=C(CC1CC1)NC12CC(n3cnc4cnc5[nH]ccc5c43)(C1)C2	400

(P) N#CC1CCN(S(=O)(=O)NC23CC(n4cnc5cnc6[nH]ccc6c54)(C2)C3)C1 (stereo not drawn)
(Q) CCCS(=O)(=O)NC12CC(n3cnc4cnc5[nH]ccc5c43)(C1)C2
Please indicate which has the smaller reported IC50: P , or Q . Mark your answer with the label of the selected entry.
Q

(A) N#CC1CN(S(=O)(=O)NC23CC(n4cnc5cnc6[nH]ccc6c54)(C2)C3)C1
(B) CCCS(=O)(=O)N[C@H]1C[C@H](n2cnc3cnc4[nH]ccc4c32)C1
(C) CCCCS(=O)(=O)NC12CC(n3cnc4cnc5[nH]ccc5c43)(C1)C2
(D) O=S(=O)(NC12CC(n3cnc4cnc5[nH]ccc5c43)(C1)C2)C1CC1
Sort the compounds on IC50; start with the lowest figure. Please, when replying, give the labels in the order that was requested.
A, C, D, B

###

target: JAK1 (Homo sapiens)
measuredAttribute: IC50 (nM)

Some compounds with known IC50 results, for comparison:
N#CCCNC(=O)NC12CC(n3cnc4cnc5[nH]ccc5c43)(C1)C2	15.6
CNS(=O)(=O)C[C@H]1C[C@@H](n2cnc3cnc4[nH]ccc4c32)C1	159

(P) CC(C)(C#N)COC(=O)NC12CC(n3cnc4cnc5[nH]ccc5c43)(C1)C2
(Q) CC(C)CS(=O)(=O)NC12CC(n3cnc4cnc5[nH]ccc5c43)(C1)C2
Hi team, can someone confirm which has the larger IC50: P or Q ? Thanks. Mark your answer with the label of the selected entry.
P
